Target: CYP3A4 (Homo sapiens)
Construct: utilizes human liver microsomes together with isoform-specific clinical drug probes; from tissue; host or cells: human liver microsomes
Sequence (P08684 whole entry, canonical isoform): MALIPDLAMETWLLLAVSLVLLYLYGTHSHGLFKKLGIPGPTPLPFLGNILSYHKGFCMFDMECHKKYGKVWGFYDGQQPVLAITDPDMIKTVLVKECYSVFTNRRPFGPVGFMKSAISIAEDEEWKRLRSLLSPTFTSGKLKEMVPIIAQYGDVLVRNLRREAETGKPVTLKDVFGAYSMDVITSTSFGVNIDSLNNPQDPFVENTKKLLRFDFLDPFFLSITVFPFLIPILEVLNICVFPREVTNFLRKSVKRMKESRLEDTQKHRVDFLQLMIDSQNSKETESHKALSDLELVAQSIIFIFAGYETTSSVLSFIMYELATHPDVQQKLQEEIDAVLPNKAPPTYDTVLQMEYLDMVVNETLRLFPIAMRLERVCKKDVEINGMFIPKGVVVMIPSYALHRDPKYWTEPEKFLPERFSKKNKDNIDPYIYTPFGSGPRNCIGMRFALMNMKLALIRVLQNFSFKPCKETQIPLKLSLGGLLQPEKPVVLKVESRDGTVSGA
Experiment: High density drug-drug interactions (DDI) 3 μM cocktail screen in human liver microsomes
Format: in vitro ADME
Conditions: 3 uM test compound, pooled human liver microsomes, probe midazolam 2 μM; read-out: % Inhibition of 3A4 metabolism at 3 uM
Endpoint: inhibition at 3 μM (%)
Numbers only; they are read as %.

Molecule	Endpoint	Unit Tag	Result
CC1CN(C(=O)C2CN(c3ccc(=O)n(C)n3)CC2c2ccc(Cl)cn2)CC(C)C1(O)c1ccc(Cl)cc1 (centres unmarked)	inhibition at 3 μM	%	35
COc1ccc(C2(O)C(C)CN(C(=O)C3CN(c4ccc(=O)n(C)n4)CC3c3ccc(Cl)cn3)CC2C)cc1 (centres unmarked)	inhibition at 3 μM	%	35
C[C@@H]1CN(C(=O)[C@@H]2CN(c3ccc(=O)n(C)n3)C[C@H]2c2ccc(Cl)cn2)C[C@H](C)[C@@]1(O)c1ccccn1	inhibition at 3 μM	%	54

Tell me the measured inhibition at 3 μM of CC1CN(C(=O)C2CN(c3ccc(C#N)nn3)CC2c2ccc(F)cn2)CC(C)C1(O)c1ccccc1 (centres unmarked) , please. 19

Tell me the measured inhibition at 3 μM of `C[C@@H]1CN(C(=O)[C@@H]2CN(c3ccc(C#N)nn3)C[C@H]2c2ccc(C#N)cn2)C[C@H](C)[C@@]1(O)c1ccc(F)cc1` , please. 74

Tell me the measured inhibition at 3 μM of `C[C@@H]1CN(C(=O)[C@@H]2CN(c3ccc(C#N)nn3)C[C@H]2c2ccc(Cl)cn2)C[C@H](C)[C@@]1(O)c1ccccc1` , please. 59

* * *

Molecular target: MC3 receptor (MC3R) (Homo sapiens)
Sequence (P41968 whole entry): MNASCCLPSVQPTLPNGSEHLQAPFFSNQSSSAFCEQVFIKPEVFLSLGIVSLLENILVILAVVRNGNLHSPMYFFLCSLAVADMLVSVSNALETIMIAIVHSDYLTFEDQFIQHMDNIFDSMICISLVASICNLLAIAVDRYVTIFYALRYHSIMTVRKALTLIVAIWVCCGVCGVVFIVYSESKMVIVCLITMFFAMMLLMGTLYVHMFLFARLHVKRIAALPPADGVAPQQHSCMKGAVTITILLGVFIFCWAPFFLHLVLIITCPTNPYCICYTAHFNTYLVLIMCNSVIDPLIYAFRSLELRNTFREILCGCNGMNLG
Endpoint: pKi
# pKi: negative log10 of molar concentration; output just the value

Compound	System Name	Result
C[C@@H]1CN(C(=O)[C@@H]2CN(c3ccc(=O)n(C)n3)C[C@H]2c2ccc(Cl)cn2)C[C@H](C)[C@@]1(O)c1ccccn1	MC3 receptor (MC3R) (Homo sapiens)	5.25
CC1CN(C(=O)C2CN(c3ccc(=O)n(C)n3)CC2c2ccc(Cl)cn2)CC(C)C1(O)c1ccc(F)c(F)c1 (stereo not drawn)	MC3 receptor (MC3R) (Homo sapiens)	6.25

Okay, next one:
Tell me the measured pKi of `C[C@@H]1CN(C(=O)[C@@H]2CN(c3ccc(=O)n(C)n3)C[C@H]2c2ccc(Cl)cn2)C[C@H](C)[C@@]1(O)c1ccc(Cl)cn1` , please. 6.01

* * *

Here, each record is paired with measured EC50 data.
Molecular target: MC4 receptor (Homo sapiens, UniProt P32245)
Sequence (P32245 whole entry): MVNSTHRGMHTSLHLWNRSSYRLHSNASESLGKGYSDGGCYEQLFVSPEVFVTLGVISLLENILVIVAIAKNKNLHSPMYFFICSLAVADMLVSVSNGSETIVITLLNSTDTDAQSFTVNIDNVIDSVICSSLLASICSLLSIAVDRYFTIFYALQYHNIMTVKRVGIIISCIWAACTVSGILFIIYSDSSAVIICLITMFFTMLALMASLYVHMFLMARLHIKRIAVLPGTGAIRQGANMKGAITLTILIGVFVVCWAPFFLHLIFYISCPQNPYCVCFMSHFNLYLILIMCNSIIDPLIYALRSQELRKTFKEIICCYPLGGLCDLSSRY
Test: MC4 functional agonist potency (EC50), assay protocol E of US2005/0176772 / WO 2005/077935
Details: functional potency at the MC4 receptor
Numbers only; they are read as nM.

Compound	Unit Tag	Result
CC1CN(C(=O)C2CN(c3cncc(F)c3)CC2c2ccc(Cl)cn2)CC(C)C1(O)C1CC1 (stereo not drawn) [Example 24]	nM	59.3
C[C@@H]1CN(C(=O)[C@@H]2CN(c3ccc(=O)n(C)n3)C[C@H]2c2ccc(Cl)cn2)C[C@H](C)[C@@]1(O)c1ccc(Cl)cn1 [Example 10]	nM	11.9

Okay, next one:
Tell me the measured EC50 of C[C@@H]1CN(C(=O)[C@@H]2CN(c3ccc(Cl)nn3)C[C@H]2c2ccc(F)cn2)C[C@H](C)[C@@]1(O)c1ccc(F)cc1 [Example 36] , please. 168
